FYI, the data here is from patent US20240392024A1.

- TARGET SYSTEM: T1, human TNFR2 on the cell membrane (human, UniProt P20333 23-461)
- T1 construct: whole, on cells; One molecule for all cell formats; also called TNFR2-CHO cells; CHO-TNFR2
- T1 sequence (looked up): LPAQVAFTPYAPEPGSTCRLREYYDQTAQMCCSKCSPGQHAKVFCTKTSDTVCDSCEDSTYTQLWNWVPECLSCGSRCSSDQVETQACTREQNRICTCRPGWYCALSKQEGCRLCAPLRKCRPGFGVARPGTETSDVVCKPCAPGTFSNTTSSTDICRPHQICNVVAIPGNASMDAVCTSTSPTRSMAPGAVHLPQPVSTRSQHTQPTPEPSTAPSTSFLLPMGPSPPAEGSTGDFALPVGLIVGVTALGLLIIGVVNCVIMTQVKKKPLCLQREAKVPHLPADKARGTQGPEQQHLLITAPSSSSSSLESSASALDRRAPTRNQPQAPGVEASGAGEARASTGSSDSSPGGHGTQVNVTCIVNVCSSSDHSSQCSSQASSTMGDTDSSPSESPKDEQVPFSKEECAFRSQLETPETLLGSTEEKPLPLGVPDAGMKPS
- MEASUREMENT PROTOCOL: flow cytometry, TNFR2-CHO cells

{"columns": ["BINDER", "EC50 / µg/mL"],
 "data": [
  ["anti-human TNFR2 mouse monoclonal antibody 12E12 (antibody, V domains shown) VH: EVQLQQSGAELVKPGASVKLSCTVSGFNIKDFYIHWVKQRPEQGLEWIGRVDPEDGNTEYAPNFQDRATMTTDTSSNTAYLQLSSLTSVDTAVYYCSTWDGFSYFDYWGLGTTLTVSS VL: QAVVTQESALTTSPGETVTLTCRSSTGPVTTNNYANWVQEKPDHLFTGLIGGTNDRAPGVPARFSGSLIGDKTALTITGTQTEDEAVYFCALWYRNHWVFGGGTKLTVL", 0.147],
  ["anti-human TNFR2 mouse monoclonal antibody 27F6 (antibody, V domains shown) VH: EVQLQQSGTVLARPGASVKMSCKTSGYTFTSYWMHWVKQRPGQGLEWIGTIYPGNSDTSYNQKFKGKAKLTAVTSASTAYMELNSLTNEDSAVFYCTRENLLLRSYFFDYWGQGTTLTVSS VL: DIVMTQSPASLAVSLGQRATISCKASQSVDYDGDSYLNWYQQKPGQPPKLLIYAASNLPSGIPARFSGSGSGTDFTLNIHPVEEEDAATYYCQQSNEDPRTFGGGTKLEIK", 0.187],
  ["anti-human TNFR2 mouse monoclonal antibody 29A1 (antibody, V domains shown) VH: QVQLQQSGAEVVRPGASVTLSCKASGYTFSDYEMHWVKQTPVHGLEWIGAIDPETGDTAYNQKFKDKARVTADKSSSTAYMELRSLTSEDSAVYYCTRDIHYYGSSLSYFDYWGQGTTLTVSS VL: DIVMTQSQKFMSTSVGDRVSVTCKASQNVGTNVAWYQQKPGQSPKVMIYSASYRYSGAPDRFTGSGSGTDFTLTVNNVQSEDLAEYFCQQYKTYPYTFGGGTKLEIE", 0.178]
]}
